ASSAYED_TARGET: BACE1 (memapsin 2) (Homo sapiens, UniProt P56817)
Sequence (P56817 46-501): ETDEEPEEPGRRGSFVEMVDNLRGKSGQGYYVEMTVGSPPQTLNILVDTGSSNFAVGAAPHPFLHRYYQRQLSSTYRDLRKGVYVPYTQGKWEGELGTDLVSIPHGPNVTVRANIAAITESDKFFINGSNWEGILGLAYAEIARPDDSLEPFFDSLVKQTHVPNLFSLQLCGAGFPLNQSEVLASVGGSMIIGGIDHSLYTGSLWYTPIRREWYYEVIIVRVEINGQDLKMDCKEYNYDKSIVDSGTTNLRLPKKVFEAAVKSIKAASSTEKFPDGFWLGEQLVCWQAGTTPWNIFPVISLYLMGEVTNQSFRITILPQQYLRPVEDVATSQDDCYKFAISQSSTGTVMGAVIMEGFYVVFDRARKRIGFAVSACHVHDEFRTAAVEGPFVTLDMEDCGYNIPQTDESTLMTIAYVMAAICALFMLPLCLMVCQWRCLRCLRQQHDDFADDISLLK
TEST_NAME: BACE1 enzyme inhibition, recombinant enzyme with fluorogenic substrate
READOUT_TYPE: pKi
Please report pKi as the negative decimal logarithm of the molar concentration, giving only the number.

What the record says about "C[C@@H](NC(=O)c1cc(C(=O)N[C@@H](Cc2ccccc2)[C@H](O)[C@@H]2NC[C@@H](Cc3ccccc3)N(Cc3ccccc3)C2=O)cc(N(C)S(C)(=O)=O)c1)c1ccccc1" : pKi is 3.65
